From: patent US20190031717A1

Reported values of Hydroxyproline Content Inhibition Rate in the Pulmonary Fibrosis Model for individual entries
- Test system: A549 cells induced by TGF-β1 (lung fibrosis model)
- method: Hydroxyproline content in TGF-β1-induced A549 pulmonary fibrosis cell model
- Format: cell-based, human
- assay_context: 8 uM, 48 hours
Could you give me the number in %? Just the number is fine.

Reported Hydroxyproline Content Inhibition Rate in the Pulmonary Fibrosis Model ( Ile-Val-Arg-Arg-Ala-Asp-Arg-Ala-Ala-Val-Pro-Gly-Gly-Gly-Gly-Arg-Gly-Asp-Gly-Gly-Gly-Gly-Pro-(D-Pyr)-(D-Cys)-Bip-Arg-Gly-Glu [Polypeptide V] ) = 49.25

Hydroxyproline Content Inhibition Rate in the Pulmonary Fibrosis Model reported for this substance Pro-(D-Pyr)-(D-Cys)-Bip-Arg-Gly-Glu-Gly-Gly-Gly-Gly-Ile-Val-Arg-Arg-Ala-Asp-Arg-Ala-Ala-Val-Pro-Gly-Gly-Gly-Gly-Arg-Gly-Asp [Polypeptide I] : 52.14

Record summary for Ile-Val-Arg-Arg-Ala-Asp-Arg-Ala-Ala-Val-Pro-Gly-Gly-Gly-Gly-Pro-(D-Pyr)-(D-Cys)-Bip-Arg-Gly-Glu-Gly-Gly-Gly-Gly-Arg-Gly-Asp [Polypeptide II] : reported Hydroxyproline Content Inhibition Rate in the Pulmonary Fibrosis Model = 57.35

Form: substance = Pro-(D-Pyr)-(D-Cys)-Bip-Arg-Gly-Glu-Gly-Gly-Gly-Gly-Arg-Gly-Asp-Gly-Gly-Gly-Gly-Ile-Val-Arg-Arg-Ala-Asp-Arg-Ala-Ala-Val-Pro [Polypeptide VI] ; Hydroxyproline Content Inhibition Rate in the Pulmonary Fibrosis Model = 54.17

In plain terms, Arg-Gly-Asp-Gly-Gly-Gly-Gly-Ile-Val-Arg-Arg-Ala-Asp-Arg-Ala-Ala-Val-Pro-Gly-Gly-Gly-Gly-Pro-(D-Pyr)-(D-Cys)-Bip-Arg-Gly-Glu [Polypeptide IV] has a documented Hydroxyproline Content Inhibition Rate in the Pulmonary Fibrosis Model of 47.28

Reported Hydroxyproline Content Inhibition Rate in the Pulmonary Fibrosis Model of Arg-Gly-Asp-Gly-Gly-Gly-Gly-Pro-(D-Pyr)-(D-Cys)-Bip-Arg-Gly-Glu-Gly-Gly-Gly-Gly-Ile-Val-Arg-Arg-Ala-Asp-Arg-Ala-Ala-Val-Pro [Polypeptide III] : 56.21

###

Each record here notes measured tumor growth inhibition rate, MTT Assay.
- Tested on: Breast cancer
- method: MTT assay, tumor cells
- Format: cell-based, human
- Parameters: concentration or dose not given beside the values
- assay_context: 48 hours, mean ± SD
Please state the figure in %; there is no need to write the unit.

Arg-Gly-Asp-Gly-Gly-Gly-Gly-Ile-Val-Arg-Arg-Ala-Asp-Arg-Ala-Ala-Val-Pro-Gly-Gly-Gly-Gly-Pro-(D-Pyr)-(D-Cys)-Bip-Arg-Gly-Glu [Polypeptide IV]    92.16
Ile-Val-Arg-Arg-Ala-Asp-Arg-Ala-Ala-Val-Pro-Gly-Gly-Gly-Gly-Arg-Gly-Asp-Gly-Gly-Gly-Gly-Pro-(D-Pyr)-(D-Cys)-Bip-Arg-Gly-Glu [Polypeptide V]    78.51

We now examine a further substance.
Pro-(D-Pyr)-(D-Cys)-Bip-Arg-Gly-Glu-Gly-Gly-Gly-Gly-Ile-Val-Arg-Arg-Ala-Asp-Arg-Ala-Ala-Val-Pro-Gly-Gly-Gly-Gly-Arg-Gly-Asp [Polypeptide I] yielded tumor growth inhibition rate, MTT Assay of 68.27

###

Below: a set of entries, each annotated with reported tumor growth inhibition rate, MTT Assay.
- Test system: Non-small cell lung cancer
- method: MTT assay, lung cancer tumor cells
- Assay type: cell-based, human
- Design: concentration or dose not given beside the values
- assay_context: 48 h, mean ± SD

As a guide, the following entries are already answered.
Arg-Gly-Asp-Gly-Gly-Gly-Gly-Pro-(D-Pyr)-(D-Cys)-Bip-Arg-Gly-Glu-Gly-Gly-Gly-Gly-Ile-Val-Arg-Arg-Ala-Asp-Arg-Ala-Ala-Val-Pro [Polypeptide III]    91.58 ± 17.95%
Arg-Gly-Asp-Gly-Gly-Gly-Gly-Ile-Val-Arg-Arg-Ala-Asp-Arg-Ala-Ala-Val-Pro-Gly-Gly-Gly-Gly-Pro-(D-Pyr)-(D-Cys)-Bip-Arg-Gly-Glu [Polypeptide IV]    93.66 ± 23.44%

tumor growth inhibition rate, MTT Assay value, target or system Non-small cell lung cancer, for Pro-(D-Pyr)-(D-Cys)-Bip-Arg-Gly-Glu-Gly-Gly-Gly-Gly-Ile-Val-Arg-Arg-Ala-Asp-Arg-Ala-Ala-Val-Pro-Gly-Gly-Gly-Gly-Arg-Gly-Asp [Polypeptide I] : 69.38 ± 18.03%

###

- System: Staphylococcal fluid
- method: Mouse pneumonia model, bacterial
- Format: in vivo, BALB/C mice
- Design: concentration or dose not given beside the values
- assay_context: mean ± SD
Record 1.0 whenever Inhibitory Effects on Various Pulmonary Infections is at 40% or higher; record 0.0 when lower.

Given the entry Arg-Gly-Asp-Gly-Gly-Gly-Gly-Ile-Val-Arg-Arg-Ala-Asp-Arg-Ala-Ala-Val-Pro-Gly-Gly-Gly-Gly-Pro-(D-Pyr)-(D-Cys)-Bip-Arg-Gly-Glu [Polypeptide IV] , answer whether its Inhibitory Effects on Various Pulmonary Infections meets or surpasses 40%.
1.0

Item Ile-Val-Arg-Arg-Ala-Asp-Arg-Ala-Ala-Val-Pro-Gly-Gly-Gly-Gly-Arg-Gly-Asp-Gly-Gly-Gly-Gly-Pro-(D-Pyr)-(D-Cys)-Bip-Arg-Gly-Glu [Polypeptide V] with Inhibitory Effects on Various Pulmonary Infections of 40% or above?
0.0

Threshold query (Inhibitory Effects on Various Pulmonary Infections >= 40%) on Arg-Gly-Asp-Gly-Gly-Gly-Gly-Pro-(D-Pyr)-(D-Cys)-Bip-Arg-Gly-Glu-Gly-Gly-Gly-Gly-Ile-Val-Arg-Arg-Ala-Asp-Arg-Ala-Ala-Val-Pro [Polypeptide III]
1.0

Item Pro-(D-Pyr)-(D-Cys)-Bip-Arg-Gly-Glu-Gly-Gly-Gly-Gly-Ile-Val-Arg-Arg-Ala-Asp-Arg-Ala-Ala-Val-Pro-Gly-Gly-Gly-Gly-Arg-Gly-Asp [Polypeptide I] with Inhibitory Effects on Various Pulmonary Infections of 40% or above?
0.0

Determine whether measured Inhibitory Effects on Various Pulmonary Infections meets or exceeds 40% for Ile-Val-Arg-Arg-Ala-Asp-Arg-Ala-Ala-Val-Pro-Gly-Gly-Gly-Gly-Pro-(D-Pyr)-(D-Cys)-Bip-Arg-Gly-Glu-Gly-Gly-Gly-Gly-Arg-Gly-Asp [Polypeptide II]
1.0

###

- System: Chlamydia pneumoniae
- method: Mouse pneumonia model, chlamydia
- Assay type: in vivo, BALB/C mice
- Design: concentration or dose not given beside the values
- assay_context: mean ± SD
recorded_metric: Inhibitory Effects on Various Pulmonary Infections (%)
Supply the numeric figure in %, leaving out any unit text.

# Inhibitory Effects on Various Pulmonary Infections of Ile-Val-Arg-Arg-Ala-Asp-Arg-Ala-Ala-Val-Pro-Gly-Gly-Gly-Gly-Pro-(D-Pyr)-(D-Cys)-Bip-Arg-Gly-Glu-Gly-Gly-Gly-Gly-Arg-Gly-Asp [Polypeptide II] = 46.02

// field: Inhibitory Effects on Various Pulmonary Infections; key: Pro-(D-Pyr)-(D-Cys)-Bip-Arg-Gly-Glu-Gly-Gly-Gly-Gly-Arg-Gly-Asp-Gly-Gly-Gly-Gly-Ile-Val-Arg-Arg-Ala-Asp-Arg-Ala-Ala-Val-Pro [Polypeptide VI] ; value = 42.16

In plain terms, Pro-(D-Pyr)-(D-Cys)-Bip-Arg-Gly-Glu-Gly-Gly-Gly-Gly-Ile-Val-Arg-Arg-Ala-Asp-Arg-Ala-Ala-Val-Pro-Gly-Gly-Gly-Gly-Arg-Gly-Asp [Polypeptide I] has a documented Inhibitory Effects on Various Pulmonary Infections of 35.13

The substance identified as Arg-Gly-Asp-Gly-Gly-Gly-Gly-Pro-(D-Pyr)-(D-Cys)-Bip-Arg-Gly-Glu-Gly-Gly-Gly-Gly-Ile-Val-Arg-Arg-Ala-Asp-Arg-Ala-Ala-Val-Pro [Polypeptide III] registered its Inhibitory Effects on Various Pulmonary Infections at 49.88

What the record says about Arg-Gly-Asp-Gly-Gly-Gly-Gly-Ile-Val-Arg-Arg-Ala-Asp-Arg-Ala-Ala-Val-Pro-Gly-Gly-Gly-Gly-Pro-(D-Pyr)-(D-Cys)-Bip-Arg-Gly-Glu [Polypeptide IV] : Inhibitory Effects on Various Pulmonary Infections is 47.43

Lab book: Inhibitory Effects on Various Pulmonary Infections of Ile-Val-Arg-Arg-Ala-Asp-Arg-Ala-Ala-Val-Pro-Gly-Gly-Gly-Gly-Arg-Gly-Asp-Gly-Gly-Gly-Gly-Pro-(D-Pyr)-(D-Cys)-Bip-Arg-Gly-Glu [Polypeptide V] noted as 40.40
